The origin of these recorded values is ChEMBL document CHEMBL1201862.

System: HCT-116
Test: NCI tumour cell line growth inhibition, 48 h
Activity calls are given as the source filed them. Cut-off read from the data, not from the text of the source: active = GI50 up to about 1.1 µM and inactive = higher.
Assign GI50 to each entry below.

Solved cases (6 shown):
O=C(CCc1ccc(O)cc1)NCCc1cccc(OCc2ccccc2)c1 = 21.8 µM (inactive)
c1ccc2c(c1)[nH]c1c[nH]c3c4cccnc4nc-3c12 = 17.1 µM (inactive)
COc1ccc(/C=N/n2c(Cc3ccc(Cl)cc3)n[nH]c2=O)c(OC)c1 = > 100 µM (inactive)
Nc1ncnc2c1ncn2[C@@H]1O[C@H](COC(c2ccccc2)(c2ccccc2)c2ccccc2)[C@@H](OC(=S)Oc2ccccc2)[C@@H]1F = 3.81 µM (inactive)
CCOP(=O)(O)C(Nc1ccc(/N=N/c2ccccc2)cc1)c1ccc(C(Nc2ccc(/N=N/c3ccccc3)cc2)P(=O)(O)OCC)cc1 (centres undefined) = 18.3 µM (inactive)
O=C(NC1CCCCC1NC(c1ccccc1)(c1ccccc1)c1ccccc1)C(=O)NC1CCCCC1NC(c1ccccc1)(c1ccccc1)c1ccccc1 (centres undefined) = > 100 µM (inactive)

Return reported GI50 values for all items listed beneath this line.
1. O=C(O)[C@@H](NS(=O)(=O)c1ccc(F)cc1)c1ccccc1
2. CNC(=O)CCNC(=O)CCC(=O)N(C)C
3. CC(C)[Si](OC1=CCC[C@H]2NC(=O)[C@@H](Cc3ccccc3)[C@@]12C)(C(C)C)C(C)C

## Result
1. > 100 µM (inactive)
2. > 100 µM (inactive)
3. 3.6 µM (inactive)
